procedureText: HILIC, Waters ACQUITY UPLC BEH Amide, 100 × 2.1 mm, 1.7 µm; A: water + 0.125% formic acid + 10 mM ammonium formate; B: 5% water + 95% acetonitrile + 0.125% formic acid + 10 mM ammonium formate; gradient (min/%B) 0/100 2/100 7.7/70 9.5/40 10.25/30 12.75/100 17/100
conditionNotes: stereoisomer not certain
measurementLabel: LC retention time (min)

In [3]: df
Out[3]:
                                   molecule  measurementunit  measurednumber
0  CN=C1CN(O)C(c2ccccc2)=c2cc(Cl)ccc2=N1 [Chlordiazepoxide]              min            1.35
1  Cc1nc2ccccn2c(=O)c1CCN1CCC(C(=O)c2ccc(F)cc2)CC1 [Pirenperone]              min             3.5
2  CN1CCN(C2=Nc3cc(F)ccc3Cc3ccccc32)CC1 [Fluperlapine]              min             2.3
3  CN1C2CCC1C(C(=O)O)C(O)C2 (stereo not given) [Ecgonine]              min            7.61
4  O=C(O)c1ccc[nH]1 [Pyrrole-2-carboxylic acid]              min            5.66
